- Experimental target: FMS (Homo sapiens, UniProt P07333)
- Sequence (P07333 20-972, species assumed): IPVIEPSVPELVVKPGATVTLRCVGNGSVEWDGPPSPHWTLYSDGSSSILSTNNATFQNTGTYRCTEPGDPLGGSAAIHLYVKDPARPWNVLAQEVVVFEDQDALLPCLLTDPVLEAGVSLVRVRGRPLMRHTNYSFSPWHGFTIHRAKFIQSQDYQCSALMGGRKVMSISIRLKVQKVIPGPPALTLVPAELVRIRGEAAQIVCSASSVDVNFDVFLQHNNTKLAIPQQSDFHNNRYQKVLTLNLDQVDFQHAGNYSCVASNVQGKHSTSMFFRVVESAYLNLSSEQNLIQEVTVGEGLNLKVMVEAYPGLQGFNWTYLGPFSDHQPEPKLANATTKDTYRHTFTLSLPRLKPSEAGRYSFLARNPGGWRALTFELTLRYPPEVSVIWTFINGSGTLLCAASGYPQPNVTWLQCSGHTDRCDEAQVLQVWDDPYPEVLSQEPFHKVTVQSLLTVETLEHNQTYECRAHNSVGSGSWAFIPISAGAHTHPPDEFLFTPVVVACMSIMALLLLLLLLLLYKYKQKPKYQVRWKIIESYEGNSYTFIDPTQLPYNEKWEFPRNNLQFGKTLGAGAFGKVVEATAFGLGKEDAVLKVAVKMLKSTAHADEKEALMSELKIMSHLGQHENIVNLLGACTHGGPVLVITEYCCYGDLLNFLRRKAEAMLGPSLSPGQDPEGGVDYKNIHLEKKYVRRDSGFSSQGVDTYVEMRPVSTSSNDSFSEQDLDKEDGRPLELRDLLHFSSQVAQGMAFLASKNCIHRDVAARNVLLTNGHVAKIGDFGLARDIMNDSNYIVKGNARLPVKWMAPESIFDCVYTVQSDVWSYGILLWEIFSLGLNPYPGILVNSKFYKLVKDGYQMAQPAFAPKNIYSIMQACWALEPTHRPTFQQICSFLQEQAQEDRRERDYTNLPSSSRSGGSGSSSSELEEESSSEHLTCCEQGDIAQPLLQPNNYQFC
- Test details: Kinase electrophoretic mobility shift assay, FMS
- Assay type: biochemical
- Experimental conditions: compounds tested at 10 μM, average of n = 2, ATP at apparent Km; read-out: FMS activity (percent inhibition)
Measure: inhibition at 10 µM

Consider the reported inhibition at 10 µM for these compounds:
{"columns": ["Compound", "inhibition at 10 µM"],
 "data": [
  ["O=C1NC2(CCCC2)Cn2c1cc1cnc(N[C@H]3CC[C@H](O)CC3)nc12", "50 to 70%"],
  ["CCC1Cn2c(cc3cnc(N[C@H]4CC[C@H](O)CC4)nc32)C(=O)N1 (stereo partly shown)", "71 to 90%"],
  ["O=C1NCC2(CCCC2)n2c1cc1cnc(N[C@H]3CC[C@H](O)CC3)nc12", "71 to 90%"],
  ["O=C1NCCn2c1cc1cnc(N[C@H]3CC[C@H](O)CC3)nc12", "< 50%"]
]}

Task: # get_value(readout= inhibition at 10 µM, system= FMS (Homo sapiens, UniProt P07333)) for Cc1ccccc1-c1c2n(c3nc(Nc4ccc(N5CCOCC5)cc4)ncc13)CCNC2=O
Output: < 50%

Task: Recorded inhibition at 10 µM for CC1(C)CNC(=O)c2cc3cnc(N[C@H]4CC[C@H](O)CC4)nc3n21 with FMS (Homo sapiens, UniProt P07333), please?
Output: > 90%

Task: Quick check: inhibition at 10 µM on FMS (Homo sapiens, UniProt P07333), item Cc1ccccc1-c1c2n(c3nc(N[C@H]4CC[C@H](O)CC4)ncc13)CCNC2=O ?
Output: < 50%
